- System: OVCAR-4 ovarian
- Assay protocol: NCI tumour cell line growth inhibition, 48 h
Could you please report measured TGI for the items listed next?

Worked set:
| Compound | TGI |
| --- | --- |
| Cc1cn2c(/C=C3/C(=O)Nc4c3ccc3ccccc43)c(C(F)(F)F)nc2s1 | > 100 µM |
| CC1CC[C@@]2(OC1)O[C@H]1[C@H](O)[C@H]3[C@@H]4CC[C@H]5C[C@@H](OC6OC(CO)C(OC7OC(CO)C(O)C(OC8OCC(O)C(O)C8O)C7OC7OC(CO)C(O)C(O)C7OC7OC(CO)C(O)C(O)C7O)C(O)C6O)[C@H](O)C[C@]5(C)[C@H]4CC[C@]3(C)[C@H]1[C@@H]2C (stereo not given in full) | > 10 µM |
| C=C1CC(CC)(CCN2C(=O)c3ccccc3C2=O)OC1=O (stereo not given) | 27.8 µM |
| Cc1ccc(S(=O)(=O)NC(CCC(=O)NNc2ccccc2)C(=O)NNc2ccccc2)cc1 (stereo not given) | 99.2 µM |

Next up:
Query (compound): `COc1ccc(/C=C(/c2ccccc2)[N+](=O)[O-])c(OC)c1` ; field requested: TGI
2.92 µM
